Test: recombinant barcode read abundance after kanamycin selection (control-corrected) (log10(CPM+1)); higher = more efficient recombination; sequences stand for … in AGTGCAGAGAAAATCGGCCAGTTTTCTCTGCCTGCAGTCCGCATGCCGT…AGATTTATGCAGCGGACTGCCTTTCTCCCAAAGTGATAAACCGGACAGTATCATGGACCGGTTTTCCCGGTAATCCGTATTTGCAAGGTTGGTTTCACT; site = the 11-nt target;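 further: IS621 recombinase and bridge RNA in Escherichia coli cells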
The sequences listed here are annotated with their recombinant barcode read abundance (log10).
experimental endpoint: recombinant barcode read abundance (log10)

sequence content	result
GCCTAGTCTTGGGTTCTAACCTGTTGCCA (site GCCTAGTCTTG)	1.13
CGTAGACCTTGGGTTCTAACCTGTTGCTA (site TTATCCGCTAG)	0.0216
ACTATCCCTTGGGTTCTAACCTGTTGCGG (site ACTAGGCCTCC)	0.283
